Measured EC50, listed per entry.
TARGET_OR_SYSTEM: adenosine A2b receptor (Homo sapiens)
Sequence (P29275 1-332): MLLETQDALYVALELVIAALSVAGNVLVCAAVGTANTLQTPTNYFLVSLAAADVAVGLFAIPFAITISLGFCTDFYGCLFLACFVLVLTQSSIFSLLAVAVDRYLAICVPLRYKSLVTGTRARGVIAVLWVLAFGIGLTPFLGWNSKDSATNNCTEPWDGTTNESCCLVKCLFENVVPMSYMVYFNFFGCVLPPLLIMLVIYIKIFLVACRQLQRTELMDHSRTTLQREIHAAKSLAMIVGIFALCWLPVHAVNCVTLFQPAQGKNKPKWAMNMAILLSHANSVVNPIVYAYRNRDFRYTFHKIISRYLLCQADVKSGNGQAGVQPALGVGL
TEST_NAME: Indirect determination of adenosine agonism by gene expression (luciferase, cAMP-dependent promoter), A2b cells
RECORDED_CONDITIONS: CHO cells stably transfected with A2b receptor cDNA; 50% of maximum stimulation of luciferase
Counter-ions that a name gives are not always drawn.
Response body: numeric value in nM, unit text excluded.

Guide cases for EC50, answers given:
- MOLECULE: "N#Cc1c(N)nc(SCc2csc(Nc3ccc(F)cc3)n2)c(C#N)c1-c1ccc(OCCN)cc1 [Example 70, hydrochloride]"
  UOM: "nM"
  TEST_RESULT: 28
- MOLECULE: "N#Cc1c(N)nc(SCc2csc(Nc3cccc(F)c3)n2)c(C#N)c1-c1ccc(OC[C@@H](O)CO)cc1"
  UOM: "nM"
  TEST_RESULT: 0.3
- MOLECULE: "N#Cc1c(N)nc(SCc2csc(Nc3cccc(Cl)c3)n2)c(C#N)c1-c1ccc(OC[C@@H](O)CO)cc1"
  UOM: "nM"
  TEST_RESULT: 0.3
- MOLECULE: "COCCOc1ccc(-c2c(C#N)c(N)nc(SCc3csc(Nc4ccc(C)cc4)n3)c2C#N)cc1"
  UOM: "nM"
  TEST_RESULT: 74
- MOLECULE: "N#Cc1ccc(Nc2nc(CSc3nc(N)c(C#N)c(-c4ccc(OCCO)cc4)c3C#N)cs2)cc1"
  UOM: "nM"
  TEST_RESULT: 0.5

-- ask Supply reported EC50 belonging to this molecule: COc1cc(Nc2nc(CSc3nc(N)c(C#N)c(-c4ccc(OC[C@@H](O)CO)cc4)c3C#N)cs2)ccc1F
-- reply 1.4

-- ask Consider the molecule N#Cc1c(N)nc(SCc2csc(Nc3ccc(C(=O)O)cc3)n2)c(C#N)c1-c1ccc(OCCO)cc1 . State its measured EC50.
-- reply 0.1

-- ask Tell me measured EC50 for N#Cc1c(N)nc(SCc2csc(Nc3ccc(F)c(Cl)c3)n2)c(C#N)c1-c1ccc(OC[C@@H](O)CO)cc1 please.
-- reply 0.1

-- ask Specify measured EC50 for N#Cc1c(N)nc(SCc2csc(Nc3ccc(F)cc3F)n2)c(C#N)c1-c1ccc(OCCO)cc1 .
-- reply 1

-- ask Specify EC50 for N#Cc1c(N)nc(SCc2csc(Nc3ccc(F)cc3)n2)c(C#N)c1-c1ccc(OCCO)cc1 and stop.
-- reply 1

-- ask Provide EC50 value for the following molecule: Cc1cccc(Nc2nc(CSc3nc(N)c(C#N)c(-c4ccc(OCC(O)CO)cc4)c3C#N)cs2)c1 (centres unmarked)
-- reply 6.1
